Below, each entry is listed with its recorded normalised viability.
- Test system: CAL-85-1
- Experimental Details: normalised viability (% of control), CellTiter-Blue; higher = more viable cells (about 100 = DMSO control)
- Study Conditions: 30 nM; incubation time: 72 h
Just the number please, in %, no unit attached.

For orientation, consider the following solved cases.
Query Smiles: CC/C(=C(\c1ccccc1)c1ccc(OCCN(C)C)cc1)c1ccccc1
System Name: CAL-85-1
normalised viability [%]: 92
--
Query Smiles: Cc1c(C(=O)Nc2ccc(N3C[C@@H](C)O[C@@H](C)C3)nc2)cccc1-c1ccc(OC(F)(F)F)cc1
System Name: CAL-85-1
normalised viability [%]: 86
--
Query Smiles: CCN(CC)CCOc1ccc(C(=C(Cl)c2ccccc2)c2ccccc2)cc1
System Name: CAL-85-1
normalised viability [%]: 92.4

QUERY: So what's the measured normalised viability for this one? `C[C@@H](C(=O)O)c1ccc(-c2ccccc2)c(F)c1`
RESULT: 88.4

----------
Reported normalised response is given for each of the following molecules.
- System: Hs578T
- Experimental Details: normalised response (% of control), CellTox Green; higher = less cell death (100 = DMSO, 0 = benzethonium chloride kill control)
- Study Conditions: incubation time: 72 h
Give the number; % is assumed, so skip it.

QUERY: Could you share which normalised response value was measured for Cn1cc(C[C@@H](N)C(=O)O)c2ccccc21 [1-methyl-D-tryptophan] (5000 nM) ?
RESULT: 101

QUERY: May I ask what normalised response has been recorded for O=C(c1cc(Cc2n[nH]c(=O)c3ccccc23)ccc1F)N1CCN(C(=O)C2CC2)CC1 [Olaparib] (10000 nM) ?
RESULT: 96.5

QUERY: # input molecule: CC[C@H](CC#N)OC(=O)N[C@@H](C)c1cccc(NC(=O)Nc2ccc(-c3cnco3)c(OC)c2)c1 [AVN944] (100 nM) ; wanted: its normalised response
RESULT: 98.7

QUERY: Entry under review: O=NN(CCCl)C(=O)NC1CCCCC1 [Lomustine] (100 nM) . Reported normalised response?
RESULT: 102

QUERY: Given CCc1cnn2c(NCc3ccc[n+]([O-])c3)cc(N3CCCC[C@H]3CCO)nc12 [Dinaciclib] (10 nM) , state its recorded normalised response.
RESULT: -11

QUERY: Look up normalised response for this molecule: CCc1cnn2c(NCc3ccc[n+]([O-])c3)cc(N3CCCC[C@H]3CCO)nc12 [Dinaciclib] (100 nM)
RESULT: 38

QUERY: Please give the measured normalised response for this molecule: Cc1c(N)nc([C@H](CC(N)=O)NC[C@H](N)C(N)=O)nc1C(=O)N[C@H](C(=O)N[C@H](C)[C@@H](O)[C@H](C)C(=O)N[C@H](C(=O)NCCc1nc(-c2nc(C(=O)NCCC[S+](C)C)cs2)cs1)[C@@H](C)O)[C@@H](OC1OC(CO)C(O)C(O)C1OC1OC(CO)C(O)C(OC(N)=O)C1O)c1cnc[nH]1 (stereo partly drawn) [Bleomycin] (100 nM)
RESULT: 81.2

QUERY: # get_value(readout='normalised response', item= CC(C)C(=O)Nc1ccc([N+](=O)[O-])c(C(F)(F)F)c1 [Flutamide] (100 nM) )
RESULT: 87.2

----------
- Test system: CAL-148
- Experimental Details: normalised response (% of control), CellTox Green; higher = less cell death (100 = DMSO, 0 = benzethonium chloride kill control)
- Study Conditions: incubation time: 72 h
Param threshold (80%) applies to normalised response; output Yes when value >= threshold, No when value < threshold.

// known answers, use as guide
Compound: Cn1nnc2c(C(N)=O)ncn2c1=O [Temozolomide] (1000 nM)
Classification: Yes

Compound: CCc1c(C(=O)C(N)=O)c2c(OCC(=O)O)cccc2n1Cc1ccccc1 [Varespladib] (1000 nM)
Classification: Yes

Compound: COc1cc2c(Oc3ccc(NC(=O)C4(C(=O)Nc5ccc(F)cc5)CC4)cc3F)ccnc2cc1OCCCN1CCOCC1 [Foretinib] (100 nM)
Classification: Yes

Compound: CC(C)C(=O)Nc1ccc([N+](=O)[O-])c(C(F)(F)F)c1 [Flutamide] (100 nM)
Classification: Yes

Compound: NC(=O)NO [Hydroxyurea] (100000 nM)
Classification: Yes

QUERY: Check this compound for normalised response at or above 80%: C[C@]12C=CC(=O)C=C1CC[C@@H]1[C@@H]2C(=O)C[C@@]2(C)[C@H]1CC[C@]2(O)C(=O)CO [Prednisone] (10000 nM)
RESULT: Yes

QUERY: Is normalised response for CCc1cnn2c(NCc3ccc[n+]([O-])c3)cc(N3CCCC[C@H]3CCO)nc12 [Dinaciclib] (10 nM) at or above 80%?
RESULT: Yes

QUERY: Hi team, for CC[C@H](CC#N)OC(=O)N[C@@H](C)c1cccc(NC(=O)Nc2ccc(-c3cnco3)c(OC)c2)c1 [AVN944] (100 nM) , is the recorded normalised response at or above 80%?
RESULT: Yes

QUERY: I'd appreciate it if you could say whether CC(C)NC[C@@H](C(=O)N1CCN(c2ncnc3c2[C@H](C)C[C@H]3O)CC1)c1ccc(Cl)cc1 [GDC-0068] (100 nM) has normalised response at least equal to 80%.
RESULT: Yes

QUERY: Could you verify whether the entry CO[C@H]1C[C@@H]2CC[C@@H](C)[C@@](O)(O2)C(=O)C(=O)N2CCCC[C@H]2C(=O)O[C@H]([C@H](C)C[C@@H]2CC[C@@H](O)[C@H](OC)C2)CC(=O)[C@H](C)/C=C(\C)[C@@H](O)[C@@H](OC)C(=O)[C@H](C)C[C@H](C)/C=C/C=C/C=C/1C [Sirolimus] (10 nM) shows normalised response of no less than 80%?
RESULT: No

QUERY: Check this compound for normalised response at or above 80%: CCc1cnn2c(NCc3ccc[n+]([O-])c3)cc(N3CCCC[C@H]3CCO)nc12 [Dinaciclib] (100 nM)
RESULT: No

QUERY: Does COc1cc2c(Oc3ccc(NC(=O)C4(C(=O)Nc5ccc(F)cc5)CC4)cc3F)ccnc2cc1OCCCN1CCOCC1 [Foretinib] (1000 nM) have a reported normalised response of at least 80%?
RESULT: No

QUERY: In plain terms: is recorded normalised response at least 80% for C[C@@H]1C[C@H]2[C@@H]3CCC4=CC(=O)C=C[C@]4(C)[C@@]3(F)[C@@H](O)C[C@]2(C)[C@@]1(O)C(=O)CO [Dexamethasone] (10000 nM) ?
RESULT: Yes

----------
Measured drug sensitivity score, listed per entry for reference.
- Test system: HCC1143
- Experimental Details: drug sensitivity score (DSS), CellTox Green (DSS (AUC-based score)); higher = stronger drug effect (viability inhibition or cytotoxicity); extreme values may be limits of the assay
- Study Conditions: incubation time: 72 h
Provide a numeric answer; units are not to be included.

Observe how each entry below is paired with its result.
Molecule: COc1cc2c(N3CCN(C(=O)Nc4ccc(OC(C)C)cc4)CC3)ncnc2cc1OCCCN1CCCCC1 [Tandutinib]
System Name: HCC1143
drug sensitivity score: 0
//
Molecule: CC(C)C(=O)Nc1ccc([N+](=O)[O-])c(C(F)(F)F)c1 [Flutamide]
System Name: HCC1143
drug sensitivity score: 0
//
Molecule: CC/C(=C(\c1ccccc1)c1ccc(OCCN(C)C)cc1)c1ccccc1 [Tamoxifen]
System Name: HCC1143
drug sensitivity score: 0
//
Molecule: NC(=O)c1cccc2cn(-c3ccc([C@@H]4CCCNC4)cc3)nc12 [MK-4827]
System Name: HCC1143
drug sensitivity score: 0
//
Molecule: CN1CCN(c2nc(C3=C(c4c[nH]c5ccccc45)C(=O)NC3=O)c3ccccc3n2)CC1 [Sotrastaurin]
System Name: HCC1143
drug sensitivity score: 0

QUERY: Quick one: drug sensitivity score for COc1cc2c(Oc3ccc(NC(=O)C4(C(=O)Nc5ccc(F)cc5)CC4)cc3F)ccnc2cc1OCCCN1CCOCC1 [Foretinib] ?
RESULT: 1.04

----------
Overview of recorded normalised response for various compounds
- Tested on: MFM-223
- Experimental Details: normalised response (% of control), CellTiter-Glo; higher = more viable cells (100 = DMSO, 0 = benzethonium chloride kill control)
- Study Conditions: incubation time: 72 h
# output: bare number, implied unit %

Compound: NC1(c2ccc(-c3nc4ccn5c(=O)[nH]nc5c4cc3-c3ccccc3)cc2)CCC1 [MK-2206] (10 nM)
Value Units: %
normalised response: 104

QUERY: # input compound: C[C@]12C=CC(=O)C=C1CC[C@@H]1[C@@H]2C(=O)C[C@@]2(C)[C@H]1CC[C@]2(O)C(=O)CO [Prednisone] (100 nM) ; wanted: its normalised response
RESULT: 102

QUERY: Look at this compound and give its reported normalised response. CC[C@@H]1C(=O)N(C)c2cnc(Nc3ccc(C(=O)N[C@H]4CC[C@H](N5CCN(CC6CC6)CC5)CC4)cc3OC)nc2N1C(C)C [Volasertib] (10 nM)
RESULT: 54.6
